Here the recorded EC50 is given for each entry.
ASSAY SYSTEM: Z-AAT (Homo sapiens, UniProt P01009, E366K)
Sequence (P01009 25-418 E366K): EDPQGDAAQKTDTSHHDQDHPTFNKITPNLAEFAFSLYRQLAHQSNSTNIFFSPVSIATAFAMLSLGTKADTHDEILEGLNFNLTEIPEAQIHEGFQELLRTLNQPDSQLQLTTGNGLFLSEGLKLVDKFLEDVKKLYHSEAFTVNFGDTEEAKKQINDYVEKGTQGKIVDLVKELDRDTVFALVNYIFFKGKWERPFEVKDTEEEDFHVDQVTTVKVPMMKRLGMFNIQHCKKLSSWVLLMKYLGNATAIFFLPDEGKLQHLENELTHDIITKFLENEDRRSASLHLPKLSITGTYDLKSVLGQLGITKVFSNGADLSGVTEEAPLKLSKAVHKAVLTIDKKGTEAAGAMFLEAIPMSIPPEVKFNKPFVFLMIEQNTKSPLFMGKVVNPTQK
TEST SUMMARY: AAT Function Assay (MSD Assay NL20-SI Cell Line)
APPLIED CONDITIONS: NL20 human bronchial epithelial cells expressing human Z-AAT; functionally active AAT measured as complex with hNE (MSD); read-out: NL20 Functional EC50

COMPOUND	REPORTED PROPERTY	RECORDED VALUE
O=C(O)[C@H]1CC[C@H](c2c(C3CCOCC3)n(-c3ccc(F)c(F)c3)c3cc4cn[nH]c4cc32)CC1 [Compound 22]	EC50	< 1160 nM
CC(C)c1c([C@H]2CC[C@H](C(=O)O)CC2)c2nc3[nH]ncc3cc2n1-c1ccc(F)c(OC(F)F)c1 [Compound 87]	EC50	1160 to 3000 nM

Query: Return value of EC50 for input C[C@]1(C(=O)O)C[C@@H](c2c(C3CCCOC3)n(-c3ccc(F)c(F)c3)c3cc4cn[nH]c4cc32)C1 (stereo partly drawn) [Compound 28] , no commentary.
Response: > 3000 nM

Query: Return value of EC50 for input CC(C)c1c(C2CCC(C(=O)O[C@@H]3O[C@H](C(=O)O)[C@@H](O)[C@H](O)[C@H]3O)CC2)c2nc3[nH]ncc3cc2n1-c1ccc(F)c(F)c1 (stereo partly drawn) [Compound 96] , no commentary.
Response: > 3000 nM

Query: Return value of EC50 for input COc1cc(-n2c(C3CCCOC3)c([C@H]3C[C@@](C)(C(=O)O)C3)c3cc4[nH]ncc4cc32)ccc1F (stereo partly drawn) [Compound 30] , no commentary.
Response: > 3000 nM

Query: Return value of EC50 for input [2H]C([2H])([2H])c1cc(-n2c(C(C)C)c([C@H]3CC[C@H](C(=O)O)CC3)c3nc4[nH]ncc4cc32)ccc1F [Compound 90] , no commentary.
Response: < 1160 nM

Query: Return value of EC50 for input COc1cc(-n2c(C(C)(C)CC#N)c([C@H]3CC[C@@H](C(=O)O)CC3)c3cc4[nH]ncc4cc32)ccc1F [Compound 41] , no commentary.
Response: 1160 to 3000 nM

----------
Here the recorded pIC50 is given for each entry.
ASSAY SYSTEM: Z-AAT (Homo sapiens, UniProt P01009, E366K)
TEST SUMMARY: Biochemical Assay (Z-AAT Elastase Activity Assay)
APPLIED CONDITIONS: purified Z-AAT protein from human plasma and purified human neutrophil elastase; 1 hour pre-incubation with compound
Excerpt: B. Biochemical Assay (Z-AAT Elastase Activity Assay) This assay measured the modulation of compounds 1-46 and 74-96 on Z-AAT SERPIN activity using purified Z-AAT protein and purified human neutrophil elastase (hNE). Normally, when active monomeric Z-AAT encounters a protease such as trypsin or elastase, it forms a 1:1 covalent “suicide” complex in which both the AAT and protease are irreversibly inactivated. […] Addition of Substrate and Read Plate on PE Envision • 1. […] Immediately read on Envision.
pIC50: −log10 of the molar value.

Below: 3 compounds and their reported pIC50.
COMPOUND	pIC50
CC(C)c1c(CCC(=O)O[C@@H]2O[C@H](C(=O)O)[C@@H](O)[C@H](O)[C@H]2O)c2cc3[nH]ncc3cc2n1-c1ccc(F)cc1 [Compound 93]	< 4.52
C[C@]1(C(=O)O)C[C@H](c2c(C3CCCOC3)n(-c3ccc(F)c(F)c3)c3cc4cn[nH]c4cc32)C1 (stereo partly drawn) [Compound 29]	< 4.52
CC(C)c1c(CCC(=O)O[C@@H]2O[C@H](C(=O)O)[C@@H](O)[C@H](O)[C@H]2O)c2cc3[nH]ncc3cc2n1-c1ccc(F)c(F)c1 [Compound 95]	< 4.52

Query: Return value of pIC50 for input Cc1cc(-n2c(C(C)(C)CC#N)c([C@H]3CC[C@@H](C(=O)O)CC3)c3nc4[nH]ncc4cc32)ccc1F [Compound 80] , no commentary.
Response: < 5.52

Query: Return value of pIC50 for input COc1cc(-n2c(C(C)(C)CC#N)c([C@H]3CC[C@H](C(=O)O)CC3)c3cc4[nH]ncc4cc32)ccc1F [Compound 40] , no commentary.
Response: > 5.94

Query: Return value of pIC50 for input O=C(O)[C@H]1C[C@H](c2c(C3CCCOC3)n(-c3ccc(F)c(F)c3)c3cc4cn[nH]c4cc32)C1 (stereo partly drawn) [Compound 25] , no commentary.
Response: < 4.52

----------
ASSAY SYSTEM: Z-AAT (Homo sapiens, UniProt P01009, E366K)
TEST SUMMARY: AAT Function Assay (MSD Assay NL20-SI Cell Line)
APPLIED CONDITIONS: NL20 human bronchial epithelial cells expressing human Z-AAT; functionally active AAT measured as complex with hNE (MSD); read-out: NL20 Functional EC50
pEC50: −log10 of the molar value.
Here the recorded pEC50 is given for each entry.

COMPOUND	ASSAY SYSTEM	pEC50
O=C(O)[C@H]1CC[C@@H](c2c(C3CCOCC3)n(-c3ccc(F)c(F)c3)c3cc4cn[nH]c4cc32)CC1	Z-AAT (Homo sapiens, UniProt P01009, E366K)	< 5.52
O=C(O)[C@H]1C[C@H](c2c(C3CCCOC3)n(-c3ccc(F)c(F)c3)c3cc4cn[nH]c4cc32)C1 (stereo partly drawn)	Z-AAT (Homo sapiens, UniProt P01009, E366K)	< 5.52
CC(C)c1c([C@H]2CC[C@H](C(=O)O)CC2)c2nc3[nH]ncc3cc2n1-c1ccc(F)c(F)c1	Z-AAT (Homo sapiens, UniProt P01009, E366K)	> 5.94

Query: Give pEC50; test system Z-AAT (Homo sapiens, UniProt P01009, E366K); compound COCC(C)(C)c1c(C2CN(C(=O)[C@H](C)O)C2)c2cc3[nH]ncc3cc2n1-c1ccc(F)cc1
Response: < 5.52

Query: Give pEC50; test system Z-AAT (Homo sapiens, UniProt P01009, E366K); compound CC(C)c1c([C@H]2CC[C@H](C(=O)O)CC2)c2cc3[nH]ncc3cc2n1-c1ccc(F)c(F)c1
Response: > 5.94

----------
ASSAY SYSTEM: Z-AAT (Homo sapiens, UniProt P01009, E366K)
TEST SUMMARY: Biochemical Assay (Z-AAT Elastase Activity Assay)
APPLIED CONDITIONS: purified Z-AAT protein from human plasma and purified human neutrophil elastase; 1 hour pre-incubation with compound
pIC50: −log10 of the molar value.
REPORTED PROPERTY: pIC50

Below: 5 compounds and their reported pIC50.
COMPOUND	pIC50
CO[C@H](Cc1c(C(C)C)n(-c2ccc(F)c(F)c2)c2cc3cn[nH]c3cc12)C(=O)O [Compound 6]	< 4.52
[2H]C([2H])([2H])c1cc(-n2c(C(C)C)c([C@H]3CC[C@H](C(=O)O)CC3)c3nc4[nH]ncc4cc32)ccc1F [Compound 90]	< 5.52
COc1cc(-n2c(C(C)C)c(CC3(C(=O)O)CC3)c3cc4[nH]ncc4cc32)ccc1F [Compound 9]	< 5.52
CC(C)c1c(CCC(=O)O)c2cc3[nH]nc(Cl)c3cc2n1-c1ccc(F)cc1 [Compound 1]	< 4.52
CC(C)(CC#N)c1c([C@H]2CC[C@H](C(=O)O)CC2)c2cc3[nH]ncc3cc2n1-c1ccc(F)c(F)c1 [Compound 38]	5.52 to 5.94

Query: Return value of pIC50 for input O=C(O)[C@H]1C[C@@H](c2c(C3CCCOC3)n(-c3ccc(F)c(F)c3)c3cc4cn[nH]c4cc32)C1 (stereo partly shown) [Compound 26] , no commentary.
Response: < 4.52

Query: Return value of pIC50 for input CC(C)c1c(C2=COC(C(=O)O)C2)c2cc3[nH]ncc3cc2n1-c1ccc(F)c(F)c1 (stereo not shown) [Compound 46] , no commentary.
Response: < 4.52

----------
Here the recorded pEC50 is given for each entry.
ASSAY SYSTEM: Z-AAT (Homo sapiens, UniProt P01009, E366K)
TEST SUMMARY: AAT Function Assay (MSD Assay NL20-SI Cell Line)
APPLIED CONDITIONS: NL20 human bronchial epithelial cells expressing human Z-AAT; functionally active AAT measured as complex with hNE (MSD); read-out: NL20 Functional EC50
pEC50: −log10 of the molar value.

COMPOUND	REPORTED PROPERTY	RECORDED VALUE
CC(C)(CC#N)c1c([C@H]2CC[C@H](C(=O)O)CC2)c2cc3[nH]ncc3cc2n1-c1ccc(F)cc1 [Compound 36]	pEC50	> 5.94

Query: Give pEC50; test system Z-AAT (Homo sapiens, UniProt P01009, E366K); compound COc1cc(-n2c(C3CCOCC3)c([C@H]3CC[C@H](C(=O)O)CC3)c3cc4[nH]ncc4cc32)ccc1F [Compound 24]
Response: > 5.94

Query: Give pEC50; test system Z-AAT (Homo sapiens, UniProt P01009, E366K); compound CC(C)c1c(CC2(C(=O)O)CC2)c2nc3[nH]ncc3cc2n1-c1ccc(F)c(F)c1 [Compound 34]
Response: < 5.52

Query: Give pEC50; test system Z-AAT (Homo sapiens, UniProt P01009, E366K); compound COc1cc(-n2c(C(C)(C)CC#N)c([C@H]3CC[C@@H](C(=O)O)CC3)c3cc4[nH]ncc4cc32)ccn1 [Compound 43]
Response: < 5.52

Query: Give pEC50; test system Z-AAT (Homo sapiens, UniProt P01009, E366K); compound COc1cc(-n2c(C(C)(C)CC#N)c([C@H]3CC[C@H](C(=O)O)CC3)c3cc4[nH]ncc4cc32)ccc1F [Compound 40]
Response: > 5.94

Query: Give pEC50; test system Z-AAT (Homo sapiens, UniProt P01009, E366K); compound Cc1cc(-n2c(C(C)(C)CC#N)c([C@H]3CC[C@H](C(=O)O)CC3)c3nc4[nH]ncc4cc32)ccc1F [Compound 79]
Response: > 5.94

# credit: patent US20230159580A1
